Test system: HDAC (nuclear fraction of Hela cells)
experiment_description: Assay of enzyme inhibition of HDAC (BIOMOL Kit)
Format: biochemical
test_conditions: substrate 200 μM, 15 min at RT, fluorescence
pIC50: −log10 of the molar value.
Each item that follows carries a reported pIC50.

Recorded result, O=C(/C=C/c1ccc2c(c1)C(=O)CC1(CCCN(Cc3ccccc3)C1)O2)NO (single isomer, unassigned; (+)) [Example 18] , pIC50: 6.00 to 7.00

Recorded result, O=C(/C=C/c1ccc2c(c1)C(=O)NC1(CCCN(Cc3ccccc3)C1)O2)NO (racemic) , pIC50: ≥ 7.00

Recorded result, O=C(/C=C/c1ccc2c(c1)C(=O)CC1(CCCN(C3CCCC3)C1)O2)NO (racemic) , pIC50: ≥ 7.00

Recorded result, O=C(/C=C/c1ccc2c(c1)C(=O)CC1(CN(Cc3ccccc3)C1)O2)NO , pIC50: ≥ 7.00

Recorded result, O=C(/C=C/c1ccc2c(c1)C(=O)CC1(CCCN(Cc3ccc(F)cc3)C1)O2)NO (racemic) , pIC50: ≥ 7.00

Source: patent US8980877B2
